All values here come from paper PMC4511006.

Record form. Attribute: Hemolysis (%). Fill in for each entry.
# Test system: classical pathway complement activity in factor B-depleted human serum
# assay.explanation: Hemolysis assay using factor-B depleted serum and antibody-sensitized sheep erythrocytes
# Assay type: biochemical
# recorded.conditions: 0.77mM peptide in factor B-depleted serum; triplicate, mean; standardized to water or DMSO
# Description: Soluble peptides were dissolved in water whereas insoluble peptides were reconstituted in DMSO. Results were standardized to water or DMSO, as appropriate.

**Q:** Could you share which Hemolysis (%) value was measured for IARILEPICCQERAA [PA-L3R, arginine substitution peptide of PA] ?
**A:** 80.45%

**Q:** Consider the sequence IALELEPICCQERAA [PA-I4E, glutamic acid substitution peptide of PA] and give its measured Hemolysis (%).
**A:** 92.07%

**Q:** Entry under review: IALILEPICCQEREA [PA-A14E] . Reported Hemolysis (%)?
**A:** 98.09%

**Q:** Looking for the measured Hemolysis (%) of IALILEPICCQERAR [PA-A15R] , can you help?
**A:** 44.24%

**Q:** Which Hemolysis (%) reading was recorded for the sequence IALILEPICCQRRAA [PA-E12R] ?
**A:** 95.83%

**Q:** Need Hemolysis (%) of IALILEPICCQERAE [PA-A15E] , thanks.
**A:** 93.13%

**Q:** What Hemolysis (%) value was documented for this sequence, IAEILEPICCQERAA [PA-L3E, glutamic acid substitution peptide of PA] ?
**A:** 100.27%

**Q:** Suppose we examine the sequence IALILRPICCQERAA [PA-E6R, arginine substitution peptide of PA] ; what Hemolysis (%) value has been reported?
**A:** 87.59%

**Q:** // lookup Hemolysis (%) for IALILEPICCQERRA [PA-A14R]
**A:** 88.65%

**Q:** // lookup Hemolysis (%) for IELILEPICCQERAA [PA-A2E, glutamic acid substitution peptide of PA]
**A:** 92.24%

**Q:** Which Hemolysis (%) is reported for this sequence? IALIEEPICCQERAA [PA-L5E, glutamic acid substitution peptide of PA]
**A:** 94.33%

**Q:** So what does the record say about Hemolysis (%) for IALILEEICCQERAA [PA-P7E, glutamic acid substitution peptide of PA] ?
**A:** 96.10%

**Q:** Looking for the measured Hemolysis (%) of IALILERICCQERAA [PA-P7R, arginine substitution peptide of PA] , can you help?
**A:** 89.85%

**Q:** Which Hemolysis (%) value is on record for IALILEPECCQERAA [PA-I8E, glutamic acid substitution peptide of PA] ?
**A:** 95.74%

**Q:** Any idea what Hemolysis (%) was measured for RALILEPICCQERAA [PA-I1R, arginine substitution peptide of PA] ?
**A:** 91.93%

**Q:** Using the record for IALILEPICCEERAA [PA-Q11E] , report its Hemolysis (%).
**A:** 65.60%

**Q:** // Hemolysis (%) lookup, key: IALRLEPICCQERAA [PA-I4R, arginine substitution peptide of PA]
**A:** 43.71%

**Q:** Requested read-out: Hemolysis (%). Entry: IRLILEPICCQERAA [PA-A2R, arginine substitution peptide of PA]
**A:** 87.28%

**Q:** Entry under review: IALILEPICCQEEAA [PA-R13E] . Reported Hemolysis (%)?
**A:** 101.99%

**Q:** May I ask what Hemolysis (%) has been recorded for IALIREPICCQERAA [PA-L5R, arginine substitution peptide of PA] ?
**A:** 93.40%

**Q:** Param item = EALILEPICCQERAA [PA-I1E, glutamic acid substitution peptide of PA] ; retrieve measured Hemolysis (%).
**A:** 89.27%

**Q:** What does the data say about its Hemolysis (%)? Entry: IALILEPICCRERAA [PA-Q11R]
**A:** 90.87%

**Q:** Can you look up the measured Hemolysis (%) of IALILEPRCCQERAA [PA-I8R, arginine substitution peptide of PA] for me?
**A:** 62.32%
